Entry source: patent US10100042B2

Target: human GPR40 (Homo sapiens (Human), UniProt O14842)
Sequence (O14842 whole entry): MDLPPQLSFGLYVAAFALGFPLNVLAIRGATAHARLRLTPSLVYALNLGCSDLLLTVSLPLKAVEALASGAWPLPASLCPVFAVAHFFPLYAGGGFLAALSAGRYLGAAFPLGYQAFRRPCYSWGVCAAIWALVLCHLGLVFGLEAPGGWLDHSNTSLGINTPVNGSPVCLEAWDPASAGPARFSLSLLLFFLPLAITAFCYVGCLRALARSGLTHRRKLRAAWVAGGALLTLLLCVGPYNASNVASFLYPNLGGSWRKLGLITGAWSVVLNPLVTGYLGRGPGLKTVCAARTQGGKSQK
Experiment: FLIPR assay, agonist-induced calcium mobilization in GPR40/CHO NFAT BLA cells
Assay type: cell-based
measured_metric: EC50 (nM)
The answer is to be given in nM; state only the numeric part.

For human GPR40 (Homo sapiens (Human), UniProt O14842), give EC50 of the listed compound: "O=C(O)CCc1ccc2oc(-c3cccc(-c4c(Cl)cccc4Cl)c3)cc2c1" 726

Enter measured EC50, system human GPR40 (Homo sapiens (Human), UniProt O14842), for the compound shown: "COc1cc(C)c(-c2cccc(-c3cc4cc(CCC(=O)O)ccc4o3)c2)cc1F" 815

Quote human GPR40 (Homo sapiens (Human), UniProt O14842) EC50 for entry "Cc1cc(C)c(-c2cccc(-c3cc4cc(CCC(=O)O)ccc4o3)c2)c(F)c1" . 716

Write down the reported EC50 (system: human GPR40 (Homo sapiens (Human), UniProt O14842)) of "COc1cc(C)c(-c2cccc(-c3cc4cc(CCC(=O)O)ccc4o3)c2)c(C)c1" 540

Provide measured EC50 on human GPR40 (Homo sapiens (Human), UniProt O14842) for "Cc1cc(F)cc(C)c1-c1cccc(-c2cc3cc(CCC(=O)O)ccc3o2)c1" please. 306

Give EC50 for COc1cc(C)c(-c2cccc(C3Cc4cc(CCC(=O)O)ccc4O3)c2)c(C)c1 (single isomer, unassigned) [Example 17] tested on human GPR40 (Homo sapiens (Human), UniProt O14842). 4320

With human GPR40 (Homo sapiens (Human), UniProt O14842) as the test system, provide measured EC50 for this compound: "Cc1cccc(C)c1-c1cccc(-c2cc3cc(CCC(=O)O)ccc3o2)c1" 203

Report value only: EC50, human GPR40 (Homo sapiens (Human), UniProt O14842), Cc1cccc(C)c1-c1cccc(C2Cc3cc(CCC(=O)O)ccc3O2)c1 (racemic) 1220

Report EC50 under test system human GPR40 (Homo sapiens (Human), UniProt O14842) for "COc1c(F)cc(-c2cccc(-c3cc4cc(CCC(=O)O)ccc4o3)c2)c(Cl)c1F" . 1190

Quote human GPR40 (Homo sapiens (Human), UniProt O14842) EC50 for entry "O=C(O)CCc1ccc2oc(-c3ccc(C(F)(F)F)cc3)cc2c1" . 20900

State measured EC50 of the compound COc1cc(C)c(-c2cccc(C3Cc4cc(CCC(=O)O)ccc4O3)c2)c(C)c1 (single isomer, unassigned) [Example 16] with human GPR40 (Homo sapiens (Human), UniProt O14842). 624

Please respond with reported EC50 (system human GPR40 (Homo sapiens (Human), UniProt O14842)) for COc1cc(C)c(-c2cccc(C3Cc4cc(CCC(=O)O)ccc4O3)c2)c(C)c1 (stereo not drawn) [Example 15] . 1490

----------
Molecular target: human GPR40 (Homo sapiens (Human))
Test: Inositol Phosphate Turnover (IP1) Assay 1 in HEK cells stably expressing human GPR40
Type: cell-based
Conditions: compound transferred via pocket tip
Hi there, I'd appreciate the recorded pEC50 for every entry that follows.
Reminder that pEC50 is minus the log10 of a molar concentration.

Provide pEC50 value for the following compound: "Cc1cc(F)cc(C)c1-c1cccc(-c2cc3cc(CCC(=O)O)ccc3o2)c1" 5.21

Give the reported pEC50 for this compound. COc1ccc(F)c(-c2ccc(C3Cc4ccc([C@H](C5CC5)[C@H](C)C(=O)O)cc4O3)cc2)c1 (stereo partly shown) 6.98

Write down pEC50 measured for item COc1cc(C)c(-c2cccc(C3Cc4cc(CCC(=O)O)ccc4O3)c2)c(C)c1 (single isomer, unassigned) [Example 16] 5.23

Identify measured pEC50 corresponding to "COc1ccc(F)c(-c2ccc(-c3cc4ccc([C@H](C5CC5)[C@H](C)C(=O)O)cc4o3)cc2)c1" 7.18

Write down pEC50 measured for item "Cc1cccc(C)c1-c1cccc(-c2cc3cc(CCC(=O)O)ccc3o2)c1" 5.49

Return pEC50 (reported value) for this compound: "COc1cc(C)c(-c2cccc(-c3cc4cc(CCC(=O)O)ccc4o3)c2)cc1F" 5.43

For the compound COc1cc(C)c(-c2cccc(C3Cc4cc(CCC(=O)O)ccc4O3)c2)c(C)c1 (single isomer, unassigned) [Example 17] , give its measured pEC50 value. 5.40
